target: T1, recombinant human DLL4 (Cat# 1506-D4/CF, R&D Systems) (human, UniProt Q9NR61 27-529); assay: ELISA, DLL4 coated, Fab 100 nM
T1 construct: Bought protein; also called hDLL4; rHuman DLL4
ELISA absorbance at 450 nm values for the binders below.
The figure you give is taken to be in A450; do not add the unit.

Fab VH5-51_IGHD5-18*01>3_IGHJ4*01 G100K/G104T G24T/S28R/G35V & V3-4_IGLJ1*01 V91L/S96P S52H (Fab, V domains shown, Fab made in E. coli: VH on CH1 with His6 and Flag tags (Plasmid A), VL on lambda CL (Plasmid E); also called H: KT TRV & L: LP S52H) VH: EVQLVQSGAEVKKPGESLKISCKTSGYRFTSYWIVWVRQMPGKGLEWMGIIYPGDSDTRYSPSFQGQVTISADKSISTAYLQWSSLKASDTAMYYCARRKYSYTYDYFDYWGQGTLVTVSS VL: QTVVTQEPSFSVSPGGTVTLTCGLSSGSVSTSYYPSWYQQTPGQAPRTLIYHTNTRSSGVPDRFSGSILGNKAALTITGAQADDESDYYCLLYMGPGISYVFGTGTKVTVL; 1.09

[in] Tell me its ELISA absorbance at 450 nm given Fab VH5-51_IGHD5-18*01>3_IGHJ4*01 G100K/G104T & V3-4_IGLJ1*01 (Fab, V domains shown, Fab made in E. coli: VH on CH1 with His6 and Flag tags (Plasmid A), VL on lambda CL (Plasmid E); also called H: KT & L: wt) VH: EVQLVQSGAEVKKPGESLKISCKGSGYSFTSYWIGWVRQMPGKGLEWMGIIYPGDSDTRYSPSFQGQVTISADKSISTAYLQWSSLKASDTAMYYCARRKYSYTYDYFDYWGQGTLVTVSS VL: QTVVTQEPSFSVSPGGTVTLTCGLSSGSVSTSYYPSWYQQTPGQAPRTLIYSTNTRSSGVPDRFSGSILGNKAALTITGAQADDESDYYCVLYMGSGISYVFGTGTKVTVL as the entry.
[out] 0.18

[in] Query ELISA absorbance at 450 nm for Fab VH5-51_IGHD5-18*01>3_IGHJ4*01 G100K/G104T G24T/S28R/G35V & V3-4_IGLJ1*01 V91L/S96P S52P (Fab, V domains shown, Fab made in E. coli: VH on CH1 with His6 and Flag tags (Plasmid A), VL on lambda CL (Plasmid E); also called H: KT TRV & L: LP S52P) VH: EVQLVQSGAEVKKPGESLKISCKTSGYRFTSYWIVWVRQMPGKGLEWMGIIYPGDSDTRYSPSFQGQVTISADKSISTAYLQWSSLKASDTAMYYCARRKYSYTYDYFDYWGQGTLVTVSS VL: QTVVTQEPSFSVSPGGTVTLTCGLSSGSVSTSYYPSWYQQTPGQAPRTLIYPTNTRSSGVPDRFSGSILGNKAALTITGAQADDESDYYCLLYMGPGISYVFGTGTKVTVL
[out] 1

[in] # return recorded ELISA absorbance at 450 nm for input Fab VH5-51_IGHD5-18*01>3_IGHJ4*01 G100K/G104T S28R & V3-4_IGLJ1*01 (Fab, V domains shown, Fab made in E. coli: VH on CH1 with His6 and Flag tags (Plasmid A), VL on lambda CL (Plasmid E); also called H: KT S28R & L: wt) VH: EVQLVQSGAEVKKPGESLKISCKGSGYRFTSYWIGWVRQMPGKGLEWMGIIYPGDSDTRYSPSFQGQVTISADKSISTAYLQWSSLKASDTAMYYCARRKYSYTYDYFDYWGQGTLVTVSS VL: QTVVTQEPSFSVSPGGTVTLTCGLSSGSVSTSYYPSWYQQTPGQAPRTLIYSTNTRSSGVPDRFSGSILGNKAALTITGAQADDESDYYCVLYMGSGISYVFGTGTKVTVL
[out] 0.26

[in] Read the entry Fab VH5-51_IGHD5-18*01>3_IGHJ4*01 G100K/G104T G24T/S28R/G35V & V3-4_IGLJ1*01 V91L/S96P S52Y (Fab, V domains shown, Fab made in E. coli: VH on CH1 with His6 and Flag tags (Plasmid A), VL on lambda CL (Plasmid E); also called H: KT TRV & L: LP S52Y) VH: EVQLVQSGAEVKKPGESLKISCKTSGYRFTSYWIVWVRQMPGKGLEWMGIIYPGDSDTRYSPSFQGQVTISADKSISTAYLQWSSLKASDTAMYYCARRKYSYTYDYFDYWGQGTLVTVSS VL: QTVVTQEPSFSVSPGGTVTLTCGLSSGSVSTSYYPSWYQQTPGQAPRTLIYYTNTRSSGVPDRFSGSILGNKAALTITGAQADDESDYYCLLYMGPGISYVFGTGTKVTVL and write its reported ELISA absorbance at 450 nm.
[out] 0.9

Each recorded value in this set is attributed to patent US20110318339A1.
